This section presents molecules with their documented relative viability values.
- Test system: NCI-H1975
- test description: relative viability (nuclei count vs DMSO), 5 days (fraction); higher = more cells survive
- condition context: first compound 0.005 µM

molecule | experimental target | relative viability
Nc1ccn([C@@H]2O[C@H](CO)[C@@H](O)[C@@H]2O)c(=O)n1 [Cytarabine] + Nc1nc2[nH]cc(CCc3ccc(C(=O)N[C@@H](CCC(=O)O)C(=O)O)cc3)c2c(=O)[nH]1 [Pemetrexed] (partner 0.2 µM) | NCI-H1975 | 0.255
COc1cc2nccc(Oc3ccc(NC(=O)Nc4cc(C)on4)c(Cl)c3)c2cc1OC [Tivozanib] + CS(=O)(=O)N1CCN(Cc2cc3nc(-c4cccc5[nH]ncc45)nc(N4CCOCC4)c3s2)CC1 [Pictilisib] (partner 1 µM) | NCI-H1975 | 0.278
COc1cc2nccc(Oc3ccc(NC(=O)Nc4cc(C)on4)c(Cl)c3)c2cc1OC [Tivozanib] + N=C(N)NC(=N)NCCc1ccccc1 [Phenformin] (partner 250 µM) | NCI-H1975 | 0.398
Nc1ccn([C@@H]2O[C@H](CO)[C@@H](O)[C@@H]2O)c(=O)n1 [Cytarabine] + N=C(N)NC(=N)NCCc1ccccc1 [Phenformin] (partner 250 µM) | NCI-H1975 | 0.331
Nc1ccn([C@@H]2O[C@H](CO)[C@@H](O)[C@@H]2O)c(=O)n1 [Cytarabine] + Cc1nc(NC(=O)N2CCC[C@H]2C(N)=O)sc1-c1ccnc(C(C)(C)C(F)(F)F)c1 [Alpelisib] (partner 2 µM) | NCI-H1975 | 0.442
Nc1ccn([C@@H]2O[C@H](CO)[C@@H](O)[C@@H]2O)c(=O)n1 [Cytarabine] + CC1(C)CCC(c2ccc(Cl)cc2)=C(CN2CCN(c3ccc(C(=O)NS(=O)(=O)c4ccc(N[C@H](CCN5CCOCC5)CSc5ccccc5)c(S(=O)(=O)C(F)(F)F)c4)cc3)CC2)C1 [Navitoclax] (partner 0.5 µM) | NCI-H1975 | 0.944
Nc1ccn([C@@H]2O[C@H](CO)[C@@H](O)[C@@H]2O)c(=O)n1 [Cytarabine] + CC(=O)Nc1cccc(-n2c(=O)n(C3CC3)c(=O)c3c(Nc4ccc(I)cc4F)n(C)c(=O)c(C)c32)c1 [Trametinib] (partner 0.02 µM) | NCI-H1975 | 0.34
COc1cc2nccc(Oc3ccc(NC(=O)Nc4cc(C)on4)c(Cl)c3)c2cc1OC [Tivozanib] + C[C@]1(O)C[C@@H](c2nc(-c3ccc4ccc(-c5ccccc5)nc4c3)c3c(N)nccn32)C1 [Linsitinib] (partner 1 µM) | NCI-H1975 | 0.976
Nc1ccn([C@@H]2O[C@H](CO)[C@@H](O)[C@@H]2O)c(=O)n1 [Cytarabine] + CS(=O)(=O)N1CCN(Cc2cc3nc(-c4cccc5[nH]ncc45)nc(N4CCOCC4)c3s2)CC1 [Pictilisib] (partner 1 µM) | NCI-H1975 | 0.271

###

This section presents compounds with their documented relative viability values.
- System: NCI-H1437
- test description: relative viability (nuclei count vs DMSO), 5 days (fraction); higher = more cells survive
- condition context: first compound 0.0002 µM

compound | relative viability
CC(=O)O[C@@]12CO[C@@H]1C[C@H](O)[C@@]1(C)C(=O)[C@H](O)C3=C(C)[C@@H](OC(=O)[C@H](O)[C@@H](NC(=O)OC(C)(C)C)c4ccccc4)C[C@@](O)([C@@H](OC(=O)c4ccccc4)[C@H]21)C3(C)C [Docetaxel] + N=C(N)NC(=N)NCCc1ccccc1 [Phenformin] (partner 250 µM) | 0.3
CC(=O)O[C@@]12CO[C@@H]1C[C@H](O)[C@@]1(C)C(=O)[C@H](O)C3=C(C)[C@@H](OC(=O)[C@H](O)[C@@H](NC(=O)OC(C)(C)C)c4ccccc4)C[C@@](O)([C@@H](OC(=O)c4ccccc4)[C@H]21)C3(C)C [Docetaxel] + COc1cc2c(Oc3ccc(NC(=O)C4(C(=O)Nc5ccc(F)cc5)CC4)cc3F)ccnc2cc1OCCCN1CCOCC1 [Foretinib] (partner 0.25 µM) | 1.12
CC(=O)O[C@@]12CO[C@@H]1C[C@H](O)[C@@]1(C)C(=O)[C@H](O)C3=C(C)[C@@H](OC(=O)[C@H](O)[C@@H](NC(=O)OC(C)(C)C)c4ccccc4)C[C@@](O)([C@@H](OC(=O)c4ccccc4)[C@H]21)C3(C)C [Docetaxel] + CC(=O)Nc1cccc(-n2c(=O)n(C3CC3)c(=O)c3c(Nc4ccc(I)cc4F)n(C)c(=O)c(C)c32)c1 [Trametinib] (partner 0.02 µM) | 0.528
CC(=O)O[C@@]12CO[C@@H]1C[C@H](O)[C@@]1(C)C(=O)[C@H](O)C3=C(C)[C@@H](OC(=O)[C@H](O)[C@@H](NC(=O)OC(C)(C)C)c4ccccc4)C[C@@](O)([C@@H](OC(=O)c4ccccc4)[C@H]21)C3(C)C [Docetaxel] + Cc1nc(NC(=O)N2CCC[C@H]2C(N)=O)sc1-c1ccnc(C(C)(C)C(F)(F)F)c1 [Alpelisib] (partner 2 µM) | 0.888
